Entries and their Papp B→A values follow.
assay: in vitro; type: in vitro ADME, human; settings: Caco-2, Papp B-A + Elacridar avg;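 note: Caco-2 monolayers used 21 days after seeding in HBSS-HEPES buffer with 1% DMSO, donor and acceptor levels quantified by LC-MS/MS, TEER checked before and after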
Starred links: 1 amine or outer side, 2 acyl side, 3 side chain; linkers in the order of their positions; H or OH if unused. Non-standard residues stand in square brackets, D forms with d. Residues, ends and D or L forms follow the SMILES beside them. X1 = CC(C)C[C@H](NC(=S)[C@H](Cc1ccc(O)cc1)N[*:1])C(=O)[*:2]; X2 = CC(C)C[C@H](NC(=S)[C@@H](CC(C)C)N[*:1])C(=O)[*:2]; X3 = CC(C)C[C@H](N[*:1])C(=S)N[C@H](CC(C)C)C(=O)[*:2]; X4 = CC(C)C[C@H](N[*:1])C(=S)N1CCC[C@@H]1C(=O)[*:2]
State just the number; it will be interpreted in ×10⁻⁶ cm/s.

| Molecule | Quantity Unit | Papp B→A |
| --- | --- | --- |
| CC(C)C[C@@H]1NC(=O)[C@H](Cc2ccc(O)cc2)NC(=O)[C@H]2CCCN2C(=S)[C@H](CC(C)C)NC(=O)[C@H](CC(C)C)NC(=O)[C@@H](CC(C)C)NC1=O [10c] (cyclo(L[dL]L[X4]Y)) | ×10⁻⁶ cm/s | 0.6 |
| CC(C)C[C@@H]1NC(=O)[C@@H](CC(C)C)NC(=O)[C@H](CC(C)C)NC(=S)[C@H](Cc2ccc(O)cc2)NC(=O)[C@H]2CCCN2C(=O)[C@H](CC(C)C)NC1=O [10e] (cyclo(LL[dP][X1][dL])) | ×10⁻⁶ cm/s | 9.5 |
| CC(C)C[C@@H]1NC(=O)[C@@H](CC(C)C)NC(=S)[C@H](CC(C)C)NC(=O)[C@H](Cc2ccc(O)cc2)NC(=O)[C@H]2CCCN2C(=O)[C@H](CC(C)C)NC1=O [10f] (cyclo(LL[dP]Y[X3])) | ×10⁻⁶ cm/s | 8.9 |

Proceeding to the next molecule to report its Papp B→A.
Qu. Any idea what Papp B→A was measured for CC(C)C[C@@H]1NC(=O)[C@H](Cc2ccc(O)cc2)NC(=O)[C@H]2CCCN2C(=O)[C@H](CC(C)C)NC(=O)[C@H](CC(C)C)NC(=S)[C@@H](CC(C)C)NC1=O [10a] (cyclo(L[dP]YL[X2])) ?
Ans. 16.9

Each recorded value in this set is attributed to paper PMC10539501.
